Biological target: T1, recombinant human MASP1 active protease (amino acids 297-699, C-terminal His Tag) (human, UniProt P48740 297-699)
T1 sequence: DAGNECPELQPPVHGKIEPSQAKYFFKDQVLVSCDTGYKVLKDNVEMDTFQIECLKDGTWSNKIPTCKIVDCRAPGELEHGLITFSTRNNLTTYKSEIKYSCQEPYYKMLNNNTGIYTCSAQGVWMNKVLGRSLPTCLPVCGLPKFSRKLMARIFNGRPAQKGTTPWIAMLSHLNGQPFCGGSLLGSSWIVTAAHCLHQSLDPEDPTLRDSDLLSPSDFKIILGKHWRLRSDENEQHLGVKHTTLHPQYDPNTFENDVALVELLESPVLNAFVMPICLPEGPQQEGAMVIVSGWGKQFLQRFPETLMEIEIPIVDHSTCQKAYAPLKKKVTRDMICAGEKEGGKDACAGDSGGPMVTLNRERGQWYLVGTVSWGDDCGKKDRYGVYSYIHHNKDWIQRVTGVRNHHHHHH
Experiment: cell-based or functional assay
Bridge positions count the residues as written; N and C are the ends. Square brackets hold non-standard residues; d marks the D form. Ends that are not written are not given here. Phe(4-Br) = N[C@@H](Cc1ccc(Br)cc1)C(=O)O
observed property: human MASP1 IC50 (nM)
Numbers only; they are read as nM.

### Prompt # input binder: GICSRS[Phe(4-Br)]PPICIPD-OH (disulfide 3-11; N-terminus assumed; SMILES CC[C@H](C)[C@H](NC(=O)CN)C(=O)N[C@H]1CSSC[C@@H](C(=O)N[C@H](C(=O)N2CCC[C@H]2C(=O)N[C@@H](CC(=O)O)C(=O)O)[C@@H](C)CC)NC(=O)[C@H]([C@@H](C)CC)NC(=O)[C@@H]2CCCN2C(=O)[C@@H]2CCCN2C(=O)[C@H](Cc2ccc(Br)cc2)NC(=O)[C@H](CO)NC(=O)[C@H](CCCNC(=N)N)NC(=O)[C@H](CO)NC1=O) [Example 416: GIC+SRS-((4-Bromo)F)-PPIC+IPD-OH] ; wanted: its human MASP1 IC50
### Response 87
